# system under test: SIRT1 (Homo sapiens, UniProt Q96EB6)
# Sequence (Q96EB6 whole entry): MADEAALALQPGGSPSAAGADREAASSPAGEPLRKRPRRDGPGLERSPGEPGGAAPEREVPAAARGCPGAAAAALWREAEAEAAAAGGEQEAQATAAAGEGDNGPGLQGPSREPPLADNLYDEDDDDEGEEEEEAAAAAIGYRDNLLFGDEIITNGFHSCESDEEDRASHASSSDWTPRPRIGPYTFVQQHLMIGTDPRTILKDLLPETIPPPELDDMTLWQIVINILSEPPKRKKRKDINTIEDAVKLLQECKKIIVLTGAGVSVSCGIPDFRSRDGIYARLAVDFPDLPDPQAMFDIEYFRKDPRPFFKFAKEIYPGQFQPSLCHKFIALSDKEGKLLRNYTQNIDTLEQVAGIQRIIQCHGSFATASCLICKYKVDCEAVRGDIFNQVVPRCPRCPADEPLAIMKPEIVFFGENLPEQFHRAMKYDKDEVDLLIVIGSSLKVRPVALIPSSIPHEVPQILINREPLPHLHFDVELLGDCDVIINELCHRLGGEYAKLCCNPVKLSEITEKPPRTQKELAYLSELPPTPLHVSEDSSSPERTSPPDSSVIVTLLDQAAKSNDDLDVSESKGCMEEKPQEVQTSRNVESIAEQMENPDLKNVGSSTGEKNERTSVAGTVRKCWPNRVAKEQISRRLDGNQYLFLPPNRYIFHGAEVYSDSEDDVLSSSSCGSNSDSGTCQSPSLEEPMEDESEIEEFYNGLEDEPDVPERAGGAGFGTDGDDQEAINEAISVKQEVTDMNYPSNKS
# assay: mass spectrometry based SIRT1 deacetylation assay (activation)
# Assay type: biochemical
# experimental context: 0.5 μM peptide substrate, 120 μM βNAD+, 10 nM SIRT1, 25 min at 25° C.; NA = not active in the assay
Tick met if EC1.5 (concentration of test compound that results in 150% activation of SIRT1) is 200 NM or greater. Tick not met if EC1.5 (concentration of test compound that results in 150% activation of SIRT1) is less than 200 NM.

O=C(Nc1ccccc1-c1nc2cc(CN3CCOCC3)cnc2s1)c1cccc(-c2cccnc2)c1 : met

IN: Can COCCN1CCN(Cc2cnc3sc(-c4ccccc4NC(=O)c4cccc(-n5cccn5)c4)nc3c2)CC1 be said to have EC1.5 (concentration of test compound that results in 150% activation of SIRT1) at or above 200 NM?
OUT: not met

IN: Hi team, for O=C(Nc1ccccc1-c1nc2cc(CN3CCNCC3)cnc2s1)c1cccc(-c2cccnc2)c1 , is the recorded EC1.5 (concentration of test compound that results in 150% activation of SIRT1) at or above 200 NM?
OUT: met

IN: Quick check, EC1.5 (concentration of test compound that results in 150% activation of SIRT1) >= 200 NM? O=C(Nc1ccccc1-c1nc2cc(CN[C@H]3CCNC3)cnc2s1)c1cccc(-c2ccccn2)c1
OUT: met

IN: Decide: is the reported value of EC1.5 (concentration of test compound that results in 150% activation of SIRT1) for O=C(Nc1ccccc1-c1nc2cc(CN3CCCC3)cnc2s1)c1cccc(-c2ccccc2)c1 equal to or greater than 200 NM?
OUT: met

IN: Entry O=C(Nc1ccccc1-c1nc2cc(CN3CCOCC3)cnc2s1)c1cccc(-c2ccccc2)n1 : is its EC1.5 (concentration of test compound that results in 150% activation of SIRT1) no less than 200 NM?
OUT: not met

IN: Could you please find out whether NC1CCN(Cc2cnc3sc(-c4ccccc4NC(=O)c4cccc(-c5ccccc5)c4)nc3c2)CC1 has EC1.5 (concentration of test compound that results in 150% activation of SIRT1) that meets 200 NM or exceeds it?
OUT: not met

IN: Hi team, for O=C(Nc1ccccc1-c1nc2cc(CN3CCOCC3)cnc2s1)c1cccc(-c2cccc(F)c2)n1 , is the recorded EC1.5 (concentration of test compound that results in 150% activation of SIRT1) at or above 200 NM?
OUT: not met

IN: Identify whether the reported EC1.5 (concentration of test compound that results in 150% activation of SIRT1) of the following compound is 200 NM or greater: O=C(Nc1ccccc1-c1nc2cc(CN3CC[C@@H](F)C3)cnc2s1)c1cccc(-c2ncccn2)c1
OUT: met

IN: Is EC1.5 (concentration of test compound that results in 150% activation of SIRT1) for O=C(Nc1ccccc1-c1nc2cc(CN3CCOCC3)cnc2s1)c1cccc(-n2cccn2)c1 at or above 200 NM?
OUT: not met

IN: Could you please find out whether O=C(Nc1ccccc1-c1nc2cc(CN3CCOCC3)cnc2s1)c1cccc(-c2ccccn2)c1 has EC1.5 (concentration of test compound that results in 150% activation of SIRT1) that meets 200 NM or exceeds it?
OUT: met

IN: Can O=C(Nc1ccccc1-c1nc2cc(CN3CC[C@H](O)C3)cnc2s1)c1ccc2ccccc2n1 be said to have EC1.5 (concentration of test compound that results in 150% activation of SIRT1) at or above 200 NM?
OUT: met

IN: Assess whether reported EC1.5 (concentration of test compound that results in 150% activation of SIRT1) for COCCN1CCN(Cc2cnc3sc(-c4ccccc4NC(=O)c4cccc(-c5ncccn5)c4)nc3c2)CC1 sits at 200 NM or higher.
OUT: met

IN: Determine whether this compound has EC1.5 (concentration of test compound that results in 150% activation of SIRT1) no lower than 200 NM: Cc1nc(-c2cccc(C(=O)Nc3ccccc3-c3nc4cc(CN5CCOCC5)cnc4s3)c2)cs1
OUT: met

IN: Entry COCCN1CCN(Cc2cnc3sc(-c4ccccc4NC(=O)c4cccc(-c5ccc(C#N)cc5)n4)nc3c2)CC1 : is its EC1.5 (concentration of test compound that results in 150% activation of SIRT1) no less than 200 NM?
OUT: met
